# assay_remarks: Metabolic stability in human liver microsomes assessed as compound remaining at 3 uM after 10 mins
# Assay type: ADME, Microsome
# condition_context: read-out: Stability
For each record, write down the corresponding remaining at 10 min, 3 µM.
The response must be a number in % with no trailing unit.

The recorded remaining at 10 min, 3 µM for "Cc1ccsc1[C@@](C)(O)[C@H]1CCCC2=Cc3c(-c4ccc(F)cc4)ncn3C[C@@]21C" is 3

The recorded remaining at 10 min, 3 µM for "C[C@]12Cn3cnc(-c4ccc(F)cc4)c3C=C1CCC[C@@H]2[C@](C)(O)c1ccc(Cl)cc1" is 56

====

# measured_target: Glucocorticoid receptor (Homo sapiens)
# Sequence (P04150 whole entry): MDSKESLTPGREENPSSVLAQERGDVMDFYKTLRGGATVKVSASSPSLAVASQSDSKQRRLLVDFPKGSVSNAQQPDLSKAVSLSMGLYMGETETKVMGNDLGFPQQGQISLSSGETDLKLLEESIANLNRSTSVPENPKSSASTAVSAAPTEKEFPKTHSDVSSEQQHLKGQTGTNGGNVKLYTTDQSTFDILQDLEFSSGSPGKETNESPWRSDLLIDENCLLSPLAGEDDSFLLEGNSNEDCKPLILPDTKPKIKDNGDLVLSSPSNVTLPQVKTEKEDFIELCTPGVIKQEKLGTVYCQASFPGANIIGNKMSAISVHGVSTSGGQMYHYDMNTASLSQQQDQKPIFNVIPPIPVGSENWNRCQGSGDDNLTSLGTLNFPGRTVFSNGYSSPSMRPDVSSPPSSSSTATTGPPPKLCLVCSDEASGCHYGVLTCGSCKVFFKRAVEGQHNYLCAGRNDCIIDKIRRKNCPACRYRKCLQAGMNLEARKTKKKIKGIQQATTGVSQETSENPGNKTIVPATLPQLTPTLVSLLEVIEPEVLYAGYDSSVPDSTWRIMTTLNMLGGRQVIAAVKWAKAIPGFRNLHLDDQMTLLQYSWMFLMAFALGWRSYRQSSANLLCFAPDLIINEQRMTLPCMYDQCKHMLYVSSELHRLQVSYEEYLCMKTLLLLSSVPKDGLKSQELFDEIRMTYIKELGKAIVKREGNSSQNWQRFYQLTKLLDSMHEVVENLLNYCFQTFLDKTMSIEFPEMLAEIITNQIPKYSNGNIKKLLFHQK
reported_metric: pKi
Value format note: pKi is -log10 of concentration (mol/L); just state the number.

The recorded pKi for "Cc1cccc([C@@](C)(O)[C@H]2CCCC3=Cc4c(-c5ccc(F)cc5)ncn4C[C@@]32C)c1" is 8.60

The recorded pKi for "C[C@]12Cc3cnn(-c4ccc(F)cc4)c3C=C1CCC[C@@H]2[C@](C)(O)c1ccsc1" is 9.10

The recorded pKi for "Cc1ccccc1[C@@](C)(O)[C@H]1CCCC2=Cc3c(-c4ccc(F)cc4)ncn3C[C@@]21C" is 8.70

The recorded pKi for C[C@]12Cn3cnc(-c4ccc(F)cc4)c3C=C1CCC[C@@H]2[C@H](O)c1ccc(F)cc1 (stereo in doubt; 19) is 7.68

The recorded pKi for "C[C@]12Cn3cnc(-c4ccc(F)cc4)c3C=C1CCC[C@@H]2[C@](C)(O)c1nccs1" is 8.52

The recorded pKi for "C[C@]12Cn3cnc(-c4ccc(F)cc4)c3C=C1CCC[C@@H]2[C@](C)(O)c1ccc(C#N)cc1" is 8.60

The recorded pKi for "C[C@]12Cn3cnc(-c4ccc(F)cc4)c3C=C1CCC[C@@H]2[C@](C)(O)C1CCCCC1" is 8.51

The recorded pKi for "C[C@]12Cn3cnc(-c4ccc(F)cc4)c3C=C1CCC[C@@H]2[C@](C)(O)c1ccc(Cl)s1" is 8.40
